- tested target: KRAS G13C (Homo sapiens (Human), UniProt P01116+P62937, G13C)
- Sequence (P01116 other isoform, or with tags, fused parts or gaps G13C): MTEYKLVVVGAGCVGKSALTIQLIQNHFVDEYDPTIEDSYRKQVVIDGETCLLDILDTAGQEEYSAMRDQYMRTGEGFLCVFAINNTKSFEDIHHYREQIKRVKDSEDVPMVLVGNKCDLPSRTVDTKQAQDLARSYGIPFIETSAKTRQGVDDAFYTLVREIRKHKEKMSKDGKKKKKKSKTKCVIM
- Sequence (P62937 whole entry): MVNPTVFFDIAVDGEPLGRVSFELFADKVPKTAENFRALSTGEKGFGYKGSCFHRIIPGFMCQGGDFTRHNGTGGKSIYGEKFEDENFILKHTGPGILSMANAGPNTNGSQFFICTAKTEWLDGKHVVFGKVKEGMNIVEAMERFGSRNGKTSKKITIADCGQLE
- protocol details: Ras-Raf disruption/FRET/MOA assay (BRAF RBD, Cyclophilin A)
- Type: biochemical
- condition info: read-out: KRAS G13C FRET IC50
Listed next: entries and their corresponding IC50.

- compound: "CCn1c(-c2cccnc2[C@H](C)OC)c2c3cc(ccc31)-c1cc(O)cc(c1)C[C@H](NC(=O)[C@H](C(C)C)N(C)C(=O)[C@H]1CCN(C(=O)[C@]3(C)CCCN3)C1)C(=O)N1CCC[C@H](N1)C(=O)OCC(C)(C)C2"
  tested target: "KRAS G13C (Homo sapiens (Human), UniProt P01116+P62937, G13C)"
  result: "10 to 100 nM"
- compound: "CCn1c(-c2cccnc2[C@H](C)OC)c2c3cc(ccc31)-c1cc(O)cc(c1)C[C@H](NC(=O)[C@H](C(C)C)N(C)C(=O)[C@@H]1CCN(C(=O)[C@]3(C)CCCN3C)C1)C(=O)N1CCC[C@H](N1)C(=O)OCC(C)(C)C2"
  tested target: "KRAS G13C (Homo sapiens (Human), UniProt P01116+P62937, G13C)"
  result: "10 to 100 nM"
- compound: "CCn1c(-c2cccnc2[C@H](C)OC)c2c3cc(ccc31)-c1csc(n1)C[C@H](NC(=O)[C@H](C(C)C)N(C)C(=O)N1CC[C@@H](F)[C@H](N)C1)C(=O)N1CCC[C@H](N1)C(=O)OCC(C)(C)C2"
  tested target: "KRAS G13C (Homo sapiens (Human), UniProt P01116+P62937, G13C)"
  result: "100 to 1000 nM"

Please turn your attention to the following entry.
[in] Entry CCn1c(-c2cccnc2[C@H](C)OC)c2c3cc(ccc31)-c1csc(n1)C[C@H](NC(=O)[C@H](C(C)C)N1CCC3(CCN(S(C)(=O)=O)C3)C1=O)C(=O)N1CCC[C@H](N1)C(=O)OCC(C)(C)C2 (stereo partly shown) , system KRAS G13C (Homo sapiens (Human), UniProt P01116+P62937, G13C): what IC50 was measured?
[out] 1000 to 10000 nM
